Values were extracted from ChEMBL document CHEMBL1136914.

Consider the following compounds; for each one, report its MIC.
tested on: Pichia kudriavzevii; test: Antifungal activity against Candida krusei after 48 hrs by microbroth dilution method; format: functional

IN: Data request, read-out MIC, for CSc1ncc(C(O)c2ccc(Br)cc2)o1 (stereo unspecified)
OUT: 4 µg/mL

IN: Data request, read-out MIC, for CCCCCCCCCCCCCC(=O)OC(c1ccc(Br)cc1)c1cnc(SC)o1 (stereo unspecified)
OUT: > 64 µg/mL

IN: Data request, read-out MIC, for `C[C@@H]1[C@H](O)[C@@H](C)/C=C/C=C/C=C/C=C/C=C/C=C/C=C/[C@H](O[C@@H]2O[C@H](C)[C@@H](O)[C@H](N)[C@@H]2O)C[C@@H]2O[C@](O)(C[C@@H](O)C[C@@H](O)[C@H](O)CC[C@@H](O)C[C@@H](O)CC(=O)O[C@H]1C)C[C@H](O)[C@H]2C(=O)O`
OUT: 0.25 µg/mL

IN: Data request, read-out MIC, for CCCCCCCCCCCCCC(=O)OC(c1ccc2ccccc2c1)c1cnc(SC)o1 (stereo unspecified)
OUT: > 64 µg/mL

IN: Data request, read-out MIC, for CCCCCCCCCCCCCC(=O)OC(c1ccc2ccccc2c1)c1cnco1 (stereo unspecified)
OUT: > 64 µg/mL

IN: Data request, read-out MIC, for OC(c1ccc2ccccc2c1)c1cnco1 (stereo unspecified)
OUT: > 64 µg/mL
